Measured OD450 accompanies every entry in the list below.
- test_target: T1, monkey CD22 protein (ACROBiosystems, catalog number SI2-R52Ha) (monkey, UniProt F6W485 20-688)
- T1 construct: commercial protein; also called monkey CD22-ECD; monkey CD22-ECD-His
- T1 sequence: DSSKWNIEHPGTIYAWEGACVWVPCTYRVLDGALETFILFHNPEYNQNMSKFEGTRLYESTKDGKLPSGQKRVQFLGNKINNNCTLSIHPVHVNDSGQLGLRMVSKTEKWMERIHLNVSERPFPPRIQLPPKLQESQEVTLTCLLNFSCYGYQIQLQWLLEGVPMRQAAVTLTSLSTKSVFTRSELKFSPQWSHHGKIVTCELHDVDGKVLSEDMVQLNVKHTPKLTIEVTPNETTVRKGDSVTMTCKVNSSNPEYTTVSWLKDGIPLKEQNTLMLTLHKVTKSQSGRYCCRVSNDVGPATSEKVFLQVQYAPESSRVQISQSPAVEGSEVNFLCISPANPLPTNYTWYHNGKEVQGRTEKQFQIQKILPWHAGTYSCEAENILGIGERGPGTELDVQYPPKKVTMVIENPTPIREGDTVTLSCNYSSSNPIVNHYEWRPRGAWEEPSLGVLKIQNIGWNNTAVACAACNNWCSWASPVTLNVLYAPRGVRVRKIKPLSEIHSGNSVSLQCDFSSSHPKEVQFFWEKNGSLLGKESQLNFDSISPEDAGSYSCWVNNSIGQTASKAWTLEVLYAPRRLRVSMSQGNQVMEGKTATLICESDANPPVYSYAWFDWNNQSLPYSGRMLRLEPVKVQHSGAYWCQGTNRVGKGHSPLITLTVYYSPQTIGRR
- assay_method_text: ELISA, coated monkey CD22 protein, antibody 100 nM

# binder, OD450 (OD450)
data = [
    ("F2.55.1 (antibody, human IgG1, lambda, V domains shown, human-murine chimeric IgG1 lambda; VL name legible) VH: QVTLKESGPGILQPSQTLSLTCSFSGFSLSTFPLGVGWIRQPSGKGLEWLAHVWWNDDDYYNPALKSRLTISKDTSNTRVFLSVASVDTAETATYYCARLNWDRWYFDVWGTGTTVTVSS VL: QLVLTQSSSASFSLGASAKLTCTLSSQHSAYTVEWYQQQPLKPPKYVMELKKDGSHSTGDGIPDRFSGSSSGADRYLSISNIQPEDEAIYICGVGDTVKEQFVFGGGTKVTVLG", 1.91),
    ("F1.267.9 (antibody, human IgG1, kappa, V domains shown, human-murine chimeric IgG1 kappa; VL name legible) VH: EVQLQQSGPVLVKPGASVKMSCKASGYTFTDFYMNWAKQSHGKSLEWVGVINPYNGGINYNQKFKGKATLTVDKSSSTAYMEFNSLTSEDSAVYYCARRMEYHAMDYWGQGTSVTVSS VL: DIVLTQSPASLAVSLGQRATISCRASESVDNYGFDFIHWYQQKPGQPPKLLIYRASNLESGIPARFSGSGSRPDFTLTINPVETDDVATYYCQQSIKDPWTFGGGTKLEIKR", 2.27),
    ("F1.250.16 (antibody, human IgG1, kappa, V domains shown, human-murine chimeric IgG1 kappa; VL name legible) VH: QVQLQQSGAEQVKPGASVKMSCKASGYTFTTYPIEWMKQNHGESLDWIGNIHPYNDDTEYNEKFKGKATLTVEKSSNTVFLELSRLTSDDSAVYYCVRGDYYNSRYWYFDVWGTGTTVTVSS VL: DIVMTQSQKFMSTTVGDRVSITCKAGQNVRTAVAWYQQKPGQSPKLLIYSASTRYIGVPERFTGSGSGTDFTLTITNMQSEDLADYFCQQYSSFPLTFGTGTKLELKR", 3.08),
]
